Assay: in vitro
Details: dog, MDCK-MDR1, passive permeability, direction not given
readout.name: Papp

Challenge: Quick one: Papp for CN(C)C(=O)C(CCN1CCC(O)(c2ccc(Cl)cc2)CC1)(c1ccccc1)c1ccccc1 [Loperamide] ?
Response given: ~32 ×10⁻⁶ cm/s

====

Assay: in vitro
Conditions: dog, MDCK-MDR1, Passive Permeability Coefficient at steady-state PBA, B>A, +GF120918
readout.name: Papp (×10⁻⁶ cm/s)
# value in ×10⁻⁶ cm/s; strip the unit string

Challenge: Quick one: Papp for CN(C)C(=O)C(CCN1CCC(O)(c2ccc(Cl)cc2)CC1)(c1ccccc1)c1ccccc1 [Loperamide] ?
Response given: 32

====

Please provide measured Efflux from P-gp into Apical Chamber k2 for the entries that follow.
Molecular target: P-gp (Homo sapiens)
Conditions: MDCK-MDR1-NKI; fitted consensus value
# value in s⁻¹; strip the unit string

Challenge: Quick one: Efflux from P-gp into Apical Chamber k2 for C=C[C@H]1C[N@@]2CC[C@H]1C[C@@H]2[C@@H](O)c1ccnc2ccc(OC)cc12 ?
Response given: 3

Challenge: Quick one: Efflux from P-gp into Apical Chamber k2 for C[C@H]1O[C@@H](O[C@H]2[C@@H](O)C[C@H](O[C@H]3[C@@H](O)C[C@H](O[C@H]4CC[C@@]5(C)[C@H](CC[C@@H]6[C@@H]5C[C@@H](O)[C@]5(C)[C@@H](C7=CC(=O)OC7)CC[C@]65O)C4)O[C@@H]3C)O[C@@H]2C)C[C@H](O)[C@@H]1O ?
Response given: 3

Challenge: Quick one: Efflux from P-gp into Apical Chamber k2 for CC[C@]1(O)C[C@@H]2CN(CCc3c([nH]c4ccccc34)[C@@](C(=O)OC)(c3cc4c(cc3OC)N(C)[C@H]3[C@@](O)(C(=O)OC)[C@H](OC(C)=O)[C@]5(CC)C=CCN6CC[C@]43[C@@H]65)C2)C1 ?
Response given: 3

Challenge: Quick one: Efflux from P-gp into Apical Chamber k2 for CN(C)C(=O)C(CCN1CCC(O)(c2ccc(Cl)cc2)CC1)(c1ccccc1)c1ccccc1 [Loperamide] ?
Response given: 0.4

====

Assay: in vitro
Conditions: dog, MDCK-MDR1, with GF120918 2 µM, both chambers, Passive Permeability Coefficient at steady-state PBA, B>A, +GF120918
readout.name: Papp (×10⁻⁶ cm/s)
# value in ×10⁻⁶ cm/s; strip the unit string

Challenge: Quick one: Papp for C=C[C@H]1C[N@@]2CC[C@H]1C[C@@H]2[C@@H](O)c1ccnc2ccc(OC)cc12 [Quinidine] ?
Response given: 67

Challenge: Quick one: Papp for CC[C@]1(O)C[C@@H]2CN(CCc3c([nH]c4ccccc34)[C@@](C(=O)OC)(c3cc4c(cc3OC)N(C)[C@H]3[C@@](O)(C(=O)OC)[C@H](OC(C)=O)[C@]5(CC)C=CCN6CC[C@]43[C@@H]65)C2)C1 [Vinblastine] ?
Response given: 9

Challenge: Quick one: Papp for C[C@H]1O[C@@H](O[C@H]2[C@@H](O)C[C@H](O[C@H]3[C@@H](O)C[C@H](O[C@H]4CC[C@@]5(C)[C@H](CC[C@@H]6[C@@H]5C[C@@H](O)[C@]5(C)[C@@H](C7=CC(=O)OC7)CC[C@]65O)C4)O[C@@H]3C)O[C@@H]2C)C[C@H](O)[C@@H]1O [Digoxin] ?
Response given: 5

====

Please provide measured Papp for the entries that follow.
Test: in vitro
Details: dog, MDCK-MDR1, with GF120918 2 µM, both chambers, passive permeability, direction not given

Challenge: Quick one: Papp for CC[C@]1(O)C[C@@H]2CN(CCc3c([nH]c4ccccc34)[C@@](C(=O)OC)(c3cc4c(cc3OC)N(C)[C@H]3[C@@](O)(C(=O)OC)[C@H](OC(C)=O)[C@]5(CC)C=CCN6CC[C@]43[C@@H]65)C2)C1 ?
Response given: < 10 ×10⁻⁶ cm/s

Challenge: Quick one: Papp for C[C@H]1O[C@@H](O[C@H]2[C@@H](O)C[C@H](O[C@H]3[C@@H](O)C[C@H](O[C@H]4CC[C@@]5(C)[C@H](CC[C@@H]6[C@@H]5C[C@@H](O)[C@]5(C)[C@@H](C7=CC(=O)OC7)CC[C@]65O)C4)O[C@@H]3C)O[C@@H]2C)C[C@H](O)[C@@H]1O ?
Response given: < 10 ×10⁻⁶ cm/s

====

Test: in vitro
Conditions: dog, MDCK-MDR1, with GF120918 2 µM, both chambers, Passive Permeability Coefficient at steady-state PAB, A>B, +GF120918
readout.name: Papp (×10⁻⁶ cm/s)
# value in ×10⁻⁶ cm/s; strip the unit string

Challenge: Quick one: Papp for CC[C@]1(O)C[C@@H]2CN(CCc3c([nH]c4ccccc34)[C@@](C(=O)OC)(c3cc4c(cc3OC)N(C)[C@H]3[C@@](O)(C(=O)OC)[C@H](OC(C)=O)[C@]5(CC)C=CCN6CC[C@]43[C@@H]65)C2)C1 ?
Response given: 5.5

Challenge: Quick one: Papp for C=C[C@H]1C[N@@]2CC[C@H]1C[C@@H]2[C@@H](O)c1ccnc2ccc(OC)cc12 ?
Response given: 67

Challenge: Quick one: Papp for C[C@H]1O[C@@H](O[C@H]2[C@@H](O)C[C@H](O[C@H]3[C@@H](O)C[C@H](O[C@H]4CC[C@@]5(C)[C@H](CC[C@@H]6[C@@H]5C[C@@H](O)[C@]5(C)[C@@H](C7=CC(=O)OC7)CC[C@]65O)C4)O[C@@H]3C)O[C@@H]2C)C[C@H](O)[C@@H]1O ?
Response given: 4

====

System: apical uptake transporter (AT)
Settings: MDCK-MDR1-NKI; fitted
readout.name: Other Transporters kA, 1st order clearance through apical uptake transporter (s⁻¹)
# value in s⁻¹; strip the unit string

Challenge: Quick one: Other Transporters kA, 1st order clearance through apical uptake transporter for CC[C@]1(O)C[C@@H]2CN(CCc3c([nH]c4ccccc34)[C@@](C(=O)OC)(c3cc4c(cc3OC)N(C)[C@H]3[C@@](O)(C(=O)OC)[C@H](OC(C)=O)[C@]5(CC)C=CCN6CC[C@]43[C@@H]65)C2)C1 ?
Response given: 0

Challenge: Quick one: Other Transporters kA, 1st order clearance through apical uptake transporter for C[C@H]1O[C@@H](O[C@H]2[C@@H](O)C[C@H](O[C@H]3[C@@H](O)C[C@H](O[C@H]4CC[C@@]5(C)[C@H](CC[C@@H]6[C@@H]5C[C@@H](O)[C@]5(C)[C@@H](C7=CC(=O)OC7)CC[C@]65O)C4)O[C@@H]3C)O[C@@H]2C)C[C@H](O)[C@@H]1O ?
Response given: 40

====

Target: P-gp (Homo sapiens, UniProt P08183)
Sequence (P08183 whole entry): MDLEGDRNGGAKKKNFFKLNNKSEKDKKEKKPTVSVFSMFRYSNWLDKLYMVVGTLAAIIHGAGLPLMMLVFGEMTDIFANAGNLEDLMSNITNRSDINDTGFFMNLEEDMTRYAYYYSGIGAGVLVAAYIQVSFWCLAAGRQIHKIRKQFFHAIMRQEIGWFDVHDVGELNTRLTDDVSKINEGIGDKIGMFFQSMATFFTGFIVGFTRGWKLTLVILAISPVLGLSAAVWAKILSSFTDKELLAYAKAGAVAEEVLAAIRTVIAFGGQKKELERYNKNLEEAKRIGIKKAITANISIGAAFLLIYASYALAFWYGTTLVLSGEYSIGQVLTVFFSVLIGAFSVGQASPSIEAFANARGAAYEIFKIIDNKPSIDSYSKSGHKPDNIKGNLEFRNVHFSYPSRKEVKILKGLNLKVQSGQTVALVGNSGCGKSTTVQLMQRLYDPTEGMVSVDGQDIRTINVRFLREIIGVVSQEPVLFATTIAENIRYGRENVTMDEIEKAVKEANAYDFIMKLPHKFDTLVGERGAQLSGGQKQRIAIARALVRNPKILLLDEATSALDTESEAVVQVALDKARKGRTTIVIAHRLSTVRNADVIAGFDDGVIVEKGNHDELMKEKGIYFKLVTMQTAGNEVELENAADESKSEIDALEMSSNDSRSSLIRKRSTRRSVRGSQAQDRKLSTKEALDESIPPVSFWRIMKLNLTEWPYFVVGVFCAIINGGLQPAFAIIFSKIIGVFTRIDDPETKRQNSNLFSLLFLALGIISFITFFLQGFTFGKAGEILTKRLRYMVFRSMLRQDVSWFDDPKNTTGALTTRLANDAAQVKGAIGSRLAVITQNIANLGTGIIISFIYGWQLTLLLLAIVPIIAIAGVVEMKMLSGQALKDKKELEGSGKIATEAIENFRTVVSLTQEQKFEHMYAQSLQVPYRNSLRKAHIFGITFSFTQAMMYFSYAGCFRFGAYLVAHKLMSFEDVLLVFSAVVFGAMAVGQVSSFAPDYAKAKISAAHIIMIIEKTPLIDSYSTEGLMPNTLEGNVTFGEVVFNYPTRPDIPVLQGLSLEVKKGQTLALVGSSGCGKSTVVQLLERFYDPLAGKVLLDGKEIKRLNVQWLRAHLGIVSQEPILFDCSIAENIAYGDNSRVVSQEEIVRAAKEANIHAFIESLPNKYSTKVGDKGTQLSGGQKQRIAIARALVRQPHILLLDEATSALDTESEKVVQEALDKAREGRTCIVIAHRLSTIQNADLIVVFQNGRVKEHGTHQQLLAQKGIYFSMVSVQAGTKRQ
readout.name: Kd (µM)
# value in µM; strip the unit string

Challenge: Quick one: Kd for CN(C)C(=O)C(CCN1CCC(O)(c2ccc(Cl)cc2)CC1)(c1ccccc1)c1ccccc1 [Loperamide] ?
Response given: 200

Where do these numbers come from? They come from paper PMC3745465.
